# System: IL-6
# Assay Protocol: Anti-inflammatory activity: LPS-induced IL-6 secretion (ELISA)
# Type: cell-based
# Reported Conditions: 1 hr pretreatment, then LPS 10 ng/ml for 24 hr; secretion by microglia; read-out: Effective dose to show at least 50% suppression (IC50) for IL-6
Property Measured: pIC50
Please treat pIC50 as minus the base-10 logarithm of the molar concentration.

Kindly note the recorded pIC50 for NC(=S)Nc1cccc(OCCCCCNC(=S)Nc2cccc3ccccc23)c1 , which is 4.70

###

# Test system: iNOS
# Assay Protocol: Anti-inflammatory activity: LPS-induced iNOS expression (Western blotting)
# Assay type: cell-based
# Reported Conditions: Mus musculus, RAW264.7; 1 hr pretreatment, then LPS 10 ng/ml for 24 hr; microglia and Raw 264.7 cells; read-out: Effective dose to show at least 50% suppression (IC50) for iNOS
Property Measured: pIC50
In textbook form, pIC50 equals minus log to base ten of the concentration in mol/L.

pIC50 reading for NC(=S)Nc1cccc(OCCCCCNC(=S)Nc2cccc3ccccc23)c1 : 6.00

Entry source: patent US8198284B2
